# protocol_summary: Toxicity liver stage against HepG2, at 10uM
# Type: cell-based
# Parameters: test concentration 10 uM, cell line HepG2-A16-CD81EGFP
# condition_details: human, HepG2-A16-CD81EGFP cells; read-out: INHIBITION
cytotoxicity at 10 µM values by entry
measurement_type: cytotoxicity at 10 µM (%)

compound | assay_value
Cn1cnnc1C1CCCN(C(=O)c2cc(C3CC3)on2)C1 (centres undefined) | 5.14
O=C1NCCCc2[nH]c(-c3nc(C4CC4)no3)nc21 | -5.74
COc1cccc(-n2nnc(C(=O)N3CCCCCC3)c2C)c1 | -9.71
O=C(NC1CCS(=O)(=O)C1)c1sccc1-c1ccc(F)cc1 (centres undefined) | 8.14

====

Entries and their cytotoxicity at 10 µM
# protocol_summary: Toxicity liver stage against HepG2, at 10uM
# Format: cell-based
# Set-up: test concentration 10 uM, cell line HepG2-A16-CD81EGFP
# condition_details: human, HepG2-A16-CD81EGFP cells; read-out: INHIBITION

molecule | readout_unit | cytotoxicity at 10 µM
CCn1nccc1CNC(=O)NC1CCCCC1 | % | -27.5
COc1ccc(-c2noc([C@@H](C)NC(=O)NC(C)(C)C)c2C(=O)O)cc1 | % | -1.63
CN(CCc1ccccc1)C(=O)c1cccnc1OCC(F)(F)F | % | 13.5
COC1CCN(S(=O)(=O)N2CCC3(CCCNC3=O)C2)CC1 (stereo not drawn) | % | 1.1
COC(=O)COc1cc(NCc2c(C)noc2C)c(Cl)cc1C | % | 3.2
Cc1csc(NC(=O)c2cnc(C3CCNCC3)cn2)n1 | % | -12.3
O=C(CSCC1CC1)N1CCCC(c2nccn2Cc2ccncc2)C1 (stereo not drawn) | % | -13.3
CCN(C)c1ccc(C(=O)NCCCc2ccccn2)cn1 | % | -43.7

====

# protocol_summary: Toxicity liver stage against HepG2, at 10uM
# Format: cell-based
# Parameters: test concentration 10 uM, cell line HepG2-A16-CD81EGFP
# condition_details: human, HepG2-A16-CD81EGFP cells; read-out: INHIBITION

molecule | cytotoxicity at 10 µM (%)
COc1ccc(S(=O)(=O)NCc2cccnc2N(C)C)cc1 | 5.32
CC(=O)N1CC[C@H]2CC(=O)N(C3CC3)CC[C@H]2C1 | -0.434
COc1ncccc1CNC(=O)c1c[nH]c(=O)c(Br)c1 | -2.62
CN1CCC2(CC1)C(=O)N(c1cccnc1)c1ccc(F)cc12 | 3.65
CCC(CN1CCOCC1)NC(=O)Cc1c(C)[nH]c2cc(C)cc(C)c12 (centres undefined) | 19.6
CN(C)C1CCC2(CCN(Cc3nccn3C)CC2)c2ccccc21 (centres undefined) | 5.64
CN(C)CCN(Cc1ccc(Cl)cc1)C(=O)c1ccn(C)c(=O)c1 | -5.22
CCC(C)N(Cc1ccsc1)C(=O)c1ccc2[nH]nnc2c1 (centres undefined) | 13.3
CC(C)C(O)C1(CNC(=O)Nc2ccc(CN3CCOC3=O)cc2)CC1 (centres undefined) | -5.09
CCc1ncncc1C(=O)NCCNS(=O)(=O)c1ccccc1 | -6.55
Cc1occc1C(=O)N1CCC[C@]2(C[C@@H](OCc3ccccn3)CO2)C1 | -72.4
CN(C)CCOc1ccccc1N1CCN(C(=O)c2ccoc2)CC1 | 24.8
OC1(CNCCSCc2ccccc2)CCCNC1 (centres undefined) | 1.84
c1ccc(-c2cccc(-c3ccn(CCN4CCCCC4)n3)c2)nc1 | -4.73
Cc1ccccc1C(=O)NC(C)c1cnn(C)c1 (centres undefined) | 15.7
CC(=O)Nc1ccc(-c2cn(CCn3c(C)cc(C)nc3=O)nn2)cc1 | 5.03
O=C(COc1coc(CN2CCCCC2)cc1=O)Nc1ccc(Cl)cc1 | 3.48
COc1ccc(F)cc1CN1CCCn2nc(CNS(C)(=O)=O)cc2C1 | 2.23
CCc1nnc(NC(=O)NCCN(C)C(=O)OC(C)(C)C)s1 | -1.6
COc1ccc(C(=O)Nc2ccccc2C(C)C)c(OC)n1 | 3.66
CCc1cc(CNCc2ccccc2N(C)C2CCN(C)CC2)on1 | -11.7
CCCN1CCN(Cc2cccc(OC)c2)[C@H]2CS(=O)(=O)C[C@H]21 | -8.15
O=C1CC(c2cccnc2)c2c(c(C(=O)O)cn2-c2ccccc2F)N1 (centres undefined) | 1.85
O=S(=O)(c1cccs1)N1CC[C@H]2[C@H]1CCN2CC1CC1 | 2.94
COc1cc(CNC(C)Cn2cccn2)cc2c1OCCO2 (centres undefined) | 1.67
CN(C)C(=O)CN1C[C@H]2CC[C@@H](C1)N(Cc1cc(F)ccc1F)C2 | -24
O=c1[nH]c2ccccc2cc1CN(Cc1ccccn1)CC1CCCO1 (centres undefined) | -4.84
Cc1csc(C2CCCN(C(=O)c3cnc4n[nH]c(C)c4c3)C2)n1 (centres undefined) | -9.39
Cc1nn(C)c2nc(N(CCOc3ccccc3)CC3CCCO3)sc12 (centres undefined) | 46.8
